Each entry below carries its recorded melting point.
parameter: melting point

1. Cc1ccc(CBr)cc1    35 °C
2. CC1CCCSC1 (stereo not drawn)    -60 °C
3. CCCCCCC(O)C(=O)O (stereo not drawn)    70 °C

* * *

parameter: melting point (°C)

1. Nc1ccc([N+](=O)[O-])cc1[N+](=O)[O-]    180
2. CC(C)(C)Br    -16.2
3. Cc1ccc(C)c(O)c1C    58
4. C#C[C@]1(O)CC[C@H]2[C@@H]3CCC4=CC(=O)CC[C@@H]4[C@H]3CC[C@@]21CC    223
5. N#CCCO    -46
6. CCCC(CC)c1ccccc1 (stereo not given)    -55.4
7. Nc1ccncc1    158
8. Cc1ccc(C(=O)N(C)C)cc1    41
9. CCN(CCO)c1ccccc1    37
10. CC1=C(/C=C/C(C)=C/C=C/C(C)=C/C=O)C(C)(C)CCC1    63
11. COc1cc(C(=O)NCc2ccc(OCCN(C)C)cc2)cc(OC)c1OC    189
12. CCC1(C)CC(=O)NC1=O (stereo not given)    65
13. CCc1c(C)c[nH]c1C    0
14. S=C1SCCS1    35
15. N#CC(F)(Cl)Cl    -110
16. CC(=O)OC(C)=O    -73
17. COc1ccn(C)c(=O)c1C#N    202
18. CCC#CC(C)C    -117
19. C1CCCCCCCCCCCCCC1    61.3
20. CCCCCCCCCCC=CCCCCCCCC(=O)O    23
21. Cc1cc(C)c(O)c(C(=O)CC2CC(=O)NC(=O)C2)c1    201
22. CN1CCc2cc3c(cc2C1)OCO3    66
23. CC(=O)c1cnccn1    77
24. COC(=O)CCCCCCCCCCCC(=O)OC    36
25. COc1cc(NS(C)(=O)=O)ccc1Nc1c2ccccc2nc2ccccc12    235
26. CC(=O)OCCOC(C)=O    -31
27. CCCCCCCCCC(=O)OC    -18
28. CCCOCC(C)OCC(C)O (stereo not given)    7.08
29. C[C@]12CCC(=O)C=C1CC[C@@H]1[C@@H]2CC[C@]2(C)C(=O)CC[C@@H]12    158
30. FC1=C(F)C(F)(F)C1(F)F    -60
31. O=C1CCCCC1C1CCCCC1 (stereo not given)    -32
32. O=CN(O)CC(=O)O    120
33. O=C(Cl)C(F)(F)F    146
34. Cc1cc(C(C)(C)C)ccc1O    27.5
35. OCCCCCCCO    22.5
36. O=C(O)c1cc(O)c(O)c(=O)c(O)c1    317
37. CCC1CC1    -149
38. O=[N+]([O-])c1ccc2[nH]nnc2c1    217
39. O=C(c1ccccc1)c1ccc([N+](=O)[O-])cc1    138
40. Oc1ccc([C@H](O)[C@H]2CCCCN2)cc1O    204
41. O=C1CCC(c2ccccc2)CC1    79.5
42. CC(=O)OC[C@]12C[C@H](OC(=O)CC(C)C)C(C)=C[C@H]1O[C@@H]1[C@H](O)[C@@H](OC(C)=O)[C@@]2(C)[C@]12CO2    152
43. COC(=O)C1(O)c2ccccc2-c2ccc(Cl)cc21 (stereo not given)    139
44. CC1=CC(=O)C=C(C)C1=O    72.5
45. FC(Br)C(F)(F)F (stereo not given)    -80
46. CC(=O)Nc1ccc(C=O)cc1    157
47. CC(=O)CC(=O)Nc1ccc(C)cc1C    90
48. Brc1ccc2c(c1)Oc1ccccc1O2    90
49. CCC(C)CC    -163
50. Cc1ccccc1NC(=S)Nc1ccccc1C    158
